test system: E. coli TESEC Mtb DapB; test: growth (OD600 after 10 h); higher = more growth (less inhibition); conditions: arabinose induction (level): High; compound 0.1 mM; raw OD600 reference: median of DMSO wells […], cell-free background 0.041
Where a name gives a salt, the structure may show the parent alone.
Catalogue of growth readings, one per entry.
The reply should be a number, written without any unit.

Examples with answers:
compound	observed
CN(C)C(=O)Oc1ccc[n+](C)c1 [Pyridostigmine iodide]	0.195
NCCCNCCSP(=O)(O)O [Amifostine]	0.196
CN1CCC2(C)c3cc(O)ccc3N(C)C12 (single isomer, unassigned; (-)) [(-)-Eseroline fumarate salt]	0.197
CN1[C@@H]2C[C@@H](OC(=O)[C@H](CO)c3ccccc3)C[C@H]1[C@@H]1O[C@@H]12 [Scopolamine hydrochloride]	0.201
CC(Cc1ccc(O)cc1)NCC(O)c1cc(O)cc(O)c1 (configuration not stated) [Fenoterol hydrobromide]	0.201

Dear colleague, I am looking for the recorded growth of the following compound: CCNCC(O)c1cccc(O)c1 (configuration not stated) [Etilefrine hydrochloride]
0.205

Dear colleague, I am looking for the recorded growth of the following compound: S=C(NC1CCCCC1)N1CCC(c2cnc[nH]2)CC1 [Thioperamide maleate]
0.201

----------
tested on: E. coli TESEC Mtb Alr; experiment: growth (OD600 after 10 h); higher = more growth (less inhibition); conditions: arabinose 1000 nM; compound 0.1 mM; raw OD600 reference: median of DMSO wells 0.294, cell-free background 0.041
endpoint-label: growth
The reply should be a number, written without any unit.

molecule	endpoint-label	observed
CCN(C)C(=O)Oc1cccc([C@H](C)N(C)C)c1 [Rivastigmine]	growth	0.293

Dear colleague, I am looking for the recorded growth of the following molecule: CCCCCC[C@H]1C(=O)O[C@H](C)[C@H](NC(=O)c2cccc(NC=O)c2O)C(=O)O[C@@H](C)[C@@H]1OC(=O)CC(C)C [Antimycin A]
0.203

Dear colleague, I am looking for the recorded growth of the following molecule: CN(C)C(=O)Oc1ccc[n+](C)c1 [Pyridostigmine iodide]
0.305

Dear colleague, I am looking for the recorded growth of the following molecule: CN1C(=O)CCS(=O)(=O)C1c1ccc(Cl)cc1 (centres undefined) [Chlormezanone]
0.298
